Test system: Human immunodeficiency virus 1
Test: Antiviral activity against Human immunodeficiency virus 1 3B virus infected in human MT2 cells assessed as inhibition of virus-induced cytopathic effect by colorimetry
Type: functional, organism-based
quantity: EC50 (µM)
The reply should contain only the number, in µM.

stdin: Look up and report measured EC50 for this entry: "O=C(O)c1cc(C(=O)O)cc(-c2ccc(-c3c4nc(c(-c5ccc(-c6cc(C(=O)O)cc(C(=O)O)c6)cc5)c5ccc([nH]5)c(-c5ccc(-c6cc(C(=O)O)cc(C(=O)O)c6)cc5)c5ccc([nH]5)c(-c5ccc(-c6cc(C(=O)O)cc(C(=O)O)c6)cc5)c5nc3C=C5)C=C4)cc2)c1"
stdout: 3.67

====

System: MT2
Experiment: Cytotoxicity against human MT2 cells after 5 days by colorimetry
Assay type: cell-based
Settings: MT2, 120 h
quantity: CC50 (µM)
Write the answer as a number in µM, unit excluded.

structure as smiles	CC50, µM
O=C(O)CNC(=O)c1ccc(-c2c3nc(c(-c4ccc(C(=O)NCC(=O)O)cc4)c4ccc([nH]4)c(-c4ccc(C(=O)NCC(=O)O)cc4)c4nc(c(-c5ccc(C(=O)NCC(=O)O)cc5)c5ccc2[nH]5)C=C4)C=C3)cc1	3.2

stdin: Supply recorded CC50 for "O=C(O)CNC(=O)c1ccc(-c2ccc(-c3c4nc(c(-c5ccc(-c6ccc(C(=O)NCC(=O)O)cc6)cc5)c5ccc([nH]5)c(-c5ccc(-c6ccc(C(=O)NCC(=O)O)cc6)cc5)c5nc(c(-c6ccc(-c7ccc(C(=O)NCC(=O)O)cc7)cc6)c6ccc3[nH]6)C=C5)C=C4)cc2)cc1" here.
stdout: 13

stdin: State its CC50 for this compound: "O=C(O)CNC(=O)c1cc(C(=O)NCC(=O)O)cc(-c2ccc(-c3c4nc(c(-c5ccc(-c6cc(C(=O)NCC(=O)O)cc(C(=O)NCC(=O)O)c6)cc5)c5ccc([nH]5)c(-c5ccc(-c6cc(C(=O)NCC(=O)O)cc(C(=O)NCC(=O)O)c6)cc5)c5nc(c(-c6ccc(-c7cc(C(=O)NCC(=O)O)cc(C(=O)NCC(=O)O)c7)cc6)c6ccc3[nH]6)C=C5)C=C4)cc2)c1"
stdout: 15

stdin: Please report the measured CC50 for "O=C(O)c1cc(C(=O)O)cc(-c2ccc(-c3c4nc(c(-c5ccc(-c6cc(C(=O)O)cc(C(=O)O)c6)cc5)c5ccc([nH]5)c(-c5ccc(-c6cc(C(=O)O)cc(C(=O)O)c6)cc5)c5ccc([nH]5)c(-c5ccc(-c6cc(C(=O)O)cc(C(=O)O)c6)cc5)c5nc3C=C5)C=C4)cc2)c1"
stdout: 18

====

System: Human immunodeficiency virus 1
Experiment: Antiviral activity against Human immunodeficiency virus 1 3B virus infected in human MT2 cells assessed as inhibition of virus-induced cytopathic effect by colorimetry
Type: functional, organism-based
quantity: EC50 (nM)
The reply should contain only the number, in nM.

stdin: // fetch EC50 given entry "O=C(O)CNC(=O)c1cc(C(=O)NCC(=O)O)cc(-c2ccc(-c3c4nc(c(-c5ccc(-c6cc(C(=O)NCC(=O)O)cc(C(=O)NCC(=O)O)c6)cc5)c5ccc([nH]5)c(-c5ccc(-c6cc(C(=O)NCC(=O)O)cc(C(=O)NCC(=O)O)c6)cc5)c5nc(c(-c6ccc(-c7cc(C(=O)NCC(=O)O)cc(C(=O)NCC(=O)O)c7)cc6)c6ccc3[nH]6)C=C5)C=C4)cc2)c1"
stdout: 1050

====

System: Hepatitis B virus
Assay: Antiviral activity against Hepatitis B virus infected in human 2.2.15 cells assessed as reduction of […] after 72 hrs by southern DNA hybridization method
Format: functional, organism-based
Conditions: HepG2 2.2.15, 72 h
Entries annotated with measured EC50

Check out these entries, answers already filled in.
structure as smiles	EC50
O=C(O)c1cc(C(=O)O)cc(-c2ccc(-c3c4nc(c(-c5ccc(-c6cc(C(=O)O)cc(C(=O)O)c6)cc5)c5ccc([nH]5)c(-c5ccc(-c6cc(C(=O)O)cc(C(=O)O)c6)cc5)c5ccc([nH]5)c(-c5ccc(-c6cc(C(=O)O)cc(C(=O)O)c6)cc5)c5nc3C=C5)C=C4)cc2)c1	> 20 µM
COC(=O)[C@H](CC(=O)O)NC(=O)c1cc(C(=O)N[C@@H](CC(=O)O)C(=O)OC)cc(-c2ccc(-c3c4nc(c(-c5ccc(-c6cc(C(=O)N[C@@H](CC(=O)O)C(=O)OC)cc(C(=O)N[C@@H](CC(=O)O)C(=O)OC)c6)cc5)c5ccc([nH]5)c(-c5ccc(-c6cc(C(=O)N[C@@H](CC(=O)O)C(=O)OC)cc(C(=O)N[C@@H](CC(=O)O)C(=O)OC)c6)cc5)c5nc(c(-c6ccc(-c7cc(C(=O)N[C@@H](CC(=O)O)C(=O)OC)cc(C(=O)N[C@@H](CC(=O)O)C(=O)OC)c7)cc6)c6ccc3[nH]6)C=C5)C=C4)cc2)c1	> 10 µM
O=C(O)CNC(=O)c1cc(C(=O)NCC(=O)O)cc(-c2ccc(-c3c4nc(c(-c5ccc(-c6cc(C(=O)NCC(=O)O)cc(C(=O)NCC(=O)O)c6)cc5)c5ccc([nH]5)c(-c5ccc(-c6cc(C(=O)NCC(=O)O)cc(C(=O)NCC(=O)O)c6)cc5)c5nc(c(-c6ccc(-c7cc(C(=O)NCC(=O)O)cc(C(=O)NCC(=O)O)c7)cc6)c6ccc3[nH]6)C=C5)C=C4)cc2)c1	> 10 µM

# evaluate next
stdin: Answer with EC50 of "O=C(O)CNC(=O)c1ccc(-c2c3nc(c(-c4ccc(C(=O)NCC(=O)O)cc4)c4ccc([nH]4)c(-c4ccc(C(=O)NCC(=O)O)cc4)c4nc(c(-c5ccc(C(=O)NCC(=O)O)cc5)c5ccc2[nH]5)C=C4)C=C3)cc1" measured for Hepatitis B virus.
stdout: > 10 µM

====

Measured CC50 by item
Test system: MT2
Experiment: Cytotoxicity against human MT2 cells after 5 days by colorimetry
Type: cell-based
Details: MT2, 120 h

structure as smiles	result
O=C(O)c1ccc(-c2ccc(-c3c4nc(c(-c5ccc(-c6ccc(C(=O)O)cc6)cc5)c5ccc([nH]5)c(-c5ccc(-c6ccc(C(=O)O)cc6)cc5)c5ccc([nH]5)c(-c5ccc(-c6ccc(C(=O)O)cc6)cc5)c5nc3C=C5)C=C4)cc2)cc1	25 µM

stdin: Could you please provide reported CC50 for "O=C(O)c1ccc(-c2c3nc(c(-c4ccc(C(=O)O)cc4)c4ccc([nH]4)c(-c4ccc(C(=O)O)cc4)c4ccc([nH]4)c(-c4ccc(C(=O)O)cc4)c4nc2C=C4)C=C3)cc1" ? Thanks!
stdout: > 25 µM

stdin: Return the recorded CC50 value; entry: "COC(=O)[C@H](CC(=O)O)NC(=O)c1cc(C(=O)N[C@@H](CC(=O)O)C(=O)OC)cc(-c2ccc(-c3c4nc(c(-c5ccc(-c6cc(C(=O)N[C@@H](CC(=O)O)C(=O)OC)cc(C(=O)N[C@@H](CC(=O)O)C(=O)OC)c6)cc5)c5ccc([nH]5)c(-c5ccc(-c6cc(C(=O)N[C@@H](CC(=O)O)C(=O)OC)cc(C(=O)N[C@@H](CC(=O)O)C(=O)OC)c6)cc5)c5nc(c(-c6ccc(-c7cc(C(=O)N[C@@H](CC(=O)O)C(=O)OC)cc(C(=O)N[C@@H](CC(=O)O)C(=O)OC)c7)cc6)c6ccc3[nH]6)C=C5)C=C4)cc2)c1"
stdout: > 25 µM

====

Test system: Human immunodeficiency virus 1
Assay: Antiviral activity against Human immunodeficiency virus 1 3B virus infected in human MT2 cells assessed as inhibition of virus-induced cytopathic effect by colorimetry
Type: functional, organism-based
pEC50: −log10 of the molar value.
quantity: pEC50

structure as smiles	pEC50
O=C(O)CNC(=O)c1ccc(-c2c3nc(c(-c4ccc(C(=O)NCC(=O)O)cc4)c4ccc([nH]4)c(-c4ccc(C(=O)NCC(=O)O)cc4)c4nc(c(-c5ccc(C(=O)NCC(=O)O)cc5)c5ccc2[nH]5)C=C4)C=C3)cc1	< 4.60
O=C(O)c1ccc(-c2c3nc(c(-c4ccc(C(=O)O)cc4)c4ccc([nH]4)c(-c4ccc(C(=O)O)cc4)c4ccc([nH]4)c(-c4ccc(C(=O)O)cc4)c4nc2C=C4)C=C3)cc1	< 4.60

From here, focus on the item given below.
stdin: Note down pEC50 recorded for "O=C(O)c1ccc(-c2ccc(-c3c4nc(c(-c5ccc(-c6ccc(C(=O)O)cc6)cc5)c5ccc([nH]5)c(-c5ccc(-c6ccc(C(=O)O)cc6)cc5)c5ccc([nH]5)c(-c5ccc(-c6ccc(C(=O)O)cc6)cc5)c5nc3C=C5)C=C4)cc2)cc1"
stdout: < 4.60
